Answer each item with its documented Relative activity.
test system: zinc-dependent metalloprotease (purified recombinant enzyme); format: biochemical; conditions: 1 mM; pre-incubation 25° C. 30 min, 50 mM Tris-HCl pH 7.0; no addition = 100
Please respond with the number in % and leave the unit unwritten.

Query block: So what's the measured Relative activity for this one? O=S(=O)([O-])[O-].[Ni+2] [NiSO4]
Result block: 140

Query block: Further, for O=S(=O)([O-])[O-].[Cu+2] [CuSO4] ?
Result block: 100

Query block: # iterate: [Ca+2].[Cl-].[Cl-] [CaCl2]
Result block: 200

Query block: Same for O=S(=O)(F)Cc1ccccc1 [PMSF, phenylmethylsulfonyl fluoride]
Result block: 104

Query block: Try this compound too: O=C(O)CN(CCOCCOCCN(CC(=O)O)CC(=O)O)CC(=O)O [EGTA]
Result block: 21

Query block: Now the compound [Cl-].[Cl-].[Zn+2] [ZnCl2]
Result block: 80

Query block: // repeat for c1cnc2c(c1)ccc1cccnc12 [1,10-phenanthroline] and report
Result block: 55

Query block: Repeat for the following compound: [Cl-].[Cl-].[Mg+2] [MgCl2]
Result block: 20

Query block: // query: O=S(=O)([O-])[O-].[Fe+2] [FeSO4]
Result block: 100
